test-description: NCI Yeast Anticancer Drug Screen. Data for the rad14 strain (AID 159);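 note: 0% = growth of vehicle-treated control cultures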
measurement-context: S. cerevisiae rad14 strain growth inhibition; at 33.0 µM; active compounds read high
Compounds without any hit were thinned out: in the full panel of roughly 79,000, 15% have a hit. The source made the active and inactive calls. Cut-off read from the data, not from the text of the source: active = growth inhibition above about 70%; inactive = the rest.
experimental-endpoint: growth inhibition

Worked cases, growth inhibition given:
Cc1cc(Cl)ccc1NC(=O)/C(Cl)=C1/Sc2ccccc2NC1=O
4% (inactive)
Nc1ccc(CCl)cc1Cc1c(O)ccc2ccccc12
16% (inactive)
CCN(CC)N=Nc1c(C(N)=O)n[nH]c1C
3% (inactive)
CN(C)CCNc1cccc2sc3ccc(O)cc3c(=O)c12
12% (inactive)
CCCCCCCCCCCCCCCCCCNC(=S)/N=C\C1=C(O)c2ccccc2C1=O
10% (inactive)

// S=C1SCN(CCc2ccccc2)CN1CCc1ccccc1 : growth inhibition value = 34% (inactive)

// S=C(S)NCC1CCC(CNC(=S)S)CC1 (stereo not drawn) : growth inhibition value = 27% (inactive)

// Oc1ccc(Br)cc1C=NC1CCCCC1 : growth inhibition value = 99% (active)

// CCCCCCCCCCCc1nc(N)n[nH]1 : growth inhibition value = 65% (inactive)

// O=C1CSC(=S)N1Cc1ccc(Cl)cc1Cl : growth inhibition value = 100% (active)

// CCCCC1=NNC(=O)C1 : growth inhibition value = 13% (inactive)

---

test-description: NCI Yeast Anticancer Drug Screen. Data for the bub3 strain (AID 167)
measurement-context: S. cerevisiae bub3 mutant strain, at 11.0 µM, active compounds read high
This is part of a sample that, as a whole, favours compounds with a hit. Of some 79,000 tested, about 15% had one in any assay.
Outcome label depends on growth inhibition relative to 20%: at/above gives true, below gives false.

Solved cases (9 shown):
CN(C)c1ccc(/C=C/c2ccnc3ccccc23)cc1N
false
Cc1ccccc1NC(=O)Cc1csc(N/N=C2\NC(=O)/C(=C/c3cccc([N+](=O)[O-])c3)S2)n1
false
S=c1nc(Cl)cc2[nH]c(Cl)cn12
false
COc1ccc(SCc2cc(OC)ccc2OC)cc1
true
OCCN(CCO)c1ccc2c(c1)Cc1ccccc1-2
false
CC(C)(C)c1ccc(O)c(C(c2ccc([N+](=O)[O-])cc2)c2cc(C(C)(C)C)ccc2O)c1
true
COc1ccc(/C=C2\SC(=S)N(C=C3C(=O)NC(=S)NC3=O)C2=O)cc1OC
true
NC(N)=NCCCS(=O)(=O)Nc1ccc(Nc2c3ccccc3nc3cc([N+](=O)[O-])ccc23)cc1
false
CN=C(N)N/N=C(\C)c1ccc2oc3ccc(/C(C)=N/NC(N)=NC)cc3c2c1
false

**Q:** Kindly determine if growth inhibition recorded for COc1ccc(/C=C(\NC(=O)c2ccccc2)C(=O)NN(C)c2ccnc3cc(Cl)ccc23)cc1OC is above or exactly 20%.
**A:** true

---

# growth inhibition per record follows
test-description: NCI Yeast Anticancer Drug Screen. Data for the rad14 strain (AID 159);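 note: 0% = growth of vehicle-treated control cultures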
measurement-context: S. cerevisiae rad14 strain growth inhibition; at 3.7 µM; active compounds read high
About 79,000 compounds went through this panel and 15% of them were active in at least one assay; those are over-represented in the sample as a whole.
Expressed in %, but write only the number.

Worked cases, growth inhibition given:
Cc1ccc(CNc2ccc(Br)cc2)cc1
-18
O=Cc1coc2ccccc2c1=O
-7
CNc1ccc(Cc2c[nH]c3ccccc23)cc1
-19

// COC(=O)/C=C1/OC(c2ccc(Br)cc2)=C(Br)C1=O : growth inhibition value = -16

// Cc1c(-c2ccccc2)[nH]c2ccccc12 : growth inhibition value = 0

---

test-description: NCI Yeast Anticancer Drug Screen. Data for the rad14 strain (AID 159);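 note: 0% = growth of vehicle-treated control cultures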
measurement-context: S. cerevisiae rad14 strain growth inhibition; at 100.0 µM
The panel holds about 79,000 compounds, 15% with a hit somewhere; the sample as a whole holds those more often. Calls of active or inactive are those of the source. Rule as the data show it: active = growth inhibition above about 70%; inactive = the rest.
Bench note: report the call from active, inactive

Solved cases (5 shown):
CCCCOC(=O)CSSCC(=O)OCCCC
active
NC(N)=N/N=C/c1cc(Cl)cc(Cl)c1O
active
O/N=C/C1c2ccccc2-c2ccccc21
active
Nc1nc2c(c(=O)[nH]1)NC(CCNc1ccc(C(=O)O)cc1)CN2 (stereo unspecified)
inactive
CN(N=O)C(=O)N[C@@H](C=O)[C@@H](O)[C@H](O)[C@H](O)CO
inactive

Consider the additional compound presented here.
**Q:** Fill in: this test's call for Nc1cc(S(N)(=O)=O)ccc1SSc1ccc(S(N)(=O)=O)cc1N is ___
**A:** active

---

test-description: NCI Yeast Anticancer Drug Screen. Data for the rad50 strain (AID 155);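 note: 0% = growth of vehicle-only cultures of the same strain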
measurement-context: S. cerevisiae rad50 strain growth inhibition; at 3.7 µM
This is part of a sample that, as a whole, favours compounds with a hit. Of some 79,000 tested, about 15% had one in any assay. The source made the active and inactive calls. Rule as the data show it: active = growth inhibition above about 70%; inactive = the rest. Residues, ends and D or L forms follow the SMILES beside them. *: point of attachment. CH2Cl = ClC*
Bench note: report the call from TRUE for active, FALSE for inactive

Solved cases (6 shown):
BrCc1ccccc1C(c1ccccc1)c1ccccc1
TRUE
COc1cccc(C(c2cc3c(cc2O)OCO3)N2CCOCC2)c1OC (stereo unspecified)
FALSE
COc1ccc(C(C#N)=C2C=CC(=NO)C=C2)cc1
FALSE
CN(C)c1ccc(N=Nc2ccccn2)cc1
FALSE
CC(=O)NC(CC(C)C)C(=O)NC(Cc1ccccc1)C(=O)CCl (stereo not drawn) (Ac-Leu-Phe-CH2Cl; configuration not given here)
FALSE
CC1=CCC(C(C)(C)c2ccc(O)cc2)CC1 (stereo unspecified)
FALSE

**Q:** Fill in: this test's call for Cc1ccc(CNc2ccc(Br)cc2)cc1 is ___
**A:** FALSE

**Q:** Fill in: this test's call for O=Nc1ccc(Nc2ccccc2)cc1 is ___
**A:** FALSE

**Q:** Fill in: this test's call for CC(C)c1cccc(O)c(=O)c1 is ___
**A:** FALSE

**Q:** Fill in: this test's call for COc1cc([C@@H]2c3cc4c(cc3[C@@H](OC3OC5COC(C)OC5C(O)C3O)[C@H]3COC(=O)[C@H]23)OCO4)cc(OC)c1O (stereo partly specified) is ___
**A:** FALSE

**Q:** Fill in: this test's call for COc1cc2c(cc1C[N+](C)(C)CSc1ccccc1)-c1ccccc1CC2 is ___
**A:** FALSE

**Q:** Fill in: this test's call for CCC(=O)N(c1ccccc1)C(C)CN1CCC(O)(c2cccc(C(F)(F)F)c2)CC1 (stereo unspecified) is ___
**A:** FALSE

**Q:** Fill in: this test's call for CCc1[nH]nc(C(N)=O)c1N=NN(C)C is ___
**A:** FALSE

**Q:** Fill in: this test's call for COc1ccc(S(=O)(=O)N/N=C\c2cc([N+](=O)[O-])cc(I)c2O)c(OC)c1OC is ___
**A:** FALSE

**Q:** Fill in: this test's call for C=C(C)[C@@H]1CCc2c(O)c(O)c(=O)cc(C)c2C1 is ___
**A:** FALSE

**Q:** Fill in: this test's call for COc1ccc(/C=C(\NC(=O)c2ccccc2)C(=O)NN(C)c2ccnc3cc(Cl)ccc23)cc1OC is ___
**A:** FALSE

**Q:** Fill in: this test's call for N#C/C(=C\c1ccccc1)c1ccccc1F is ___
**A:** FALSE

---

test-description: NCI Yeast Anticancer Drug Screen. Data for the bub3 strain (AID 167)
measurement-context: S. cerevisiae bub3 mutant strain, at 100.0 µM, active compounds read high
The panel holds about 79,000 compounds, 15% with a hit somewhere; the sample as a whole holds those more often. The source made the active and inactive calls. No stated cut-off is given here; in the data, active means growth inhibition above about 70%; inactive means the rest.
experimental-endpoint: growth inhibition

// COc1ccc(N2C(=O)CC(Cl)C2=O)cc1 (configuration not stated) : growth inhibition value = 100% (active)

---

test-description: NCI Yeast Anticancer Drug Screen. Data for the CLN2oe strain (AID 163);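 note: 0% = growth of vehicle-only control cultures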
measurement-context: S. cerevisiae CLN2oe strain, at 33.0 µM, active compounds read high
Procedure: Growth inhibition of yeast strains with defined genetic alterations is measured as a screen for potential anti-cancer activity. Selected strains with alterations in DNA damage repair or cell cycle control were exposed to compounds and growth inhibition was measured relative to vehicle treated controls. The strain used in this assay is CLN2oe
Compounds without any hit were thinned out: in the full panel of roughly 79,000, 15% have a hit.
Outcome label depends on growth inhibition relative to 40%: at/above gives Condition met, below gives Condition not met.

C=C(CCCO)[C@@H]1CC[C@@](C)(O)[C@H]1C
Condition not met
Cc1ccc(Nc2c3c(c(C#N)c4nc5ccccc5n24)CCCC3)cc1
Condition met
Nc1nc(N)c2c(n1)CCC(S(=O)(=O)c1ccc3ccccc3c1)C2 (configuration not stated)
Condition not met
CC(C)c1[nH]nc(C(N)=O)c1N=NN(C)C
Condition not met

**Q:** Kindly determine if growth inhibition recorded for CNc1ccc(Cc2c[nH]c3ccccc23)cc1 is above or exactly 40%.
**A:** Condition not met

**Q:** Kindly determine if growth inhibition recorded for O=C1c2ccccc2CCC1(Br)Br is above or exactly 40%.
**A:** Condition met

**Q:** Kindly determine if growth inhibition recorded for COc1cc(N(C)C)ccc1/C=C\c1ccnc2ccccc12 is above or exactly 40%.
**A:** Condition not met

Where these numbers come from: PubChem BioAssay (NCI)
